The origin of these recorded values is patent US20240239788A1.

Below, each entry is listed alongside its reported IC50.
molecular target: KRAS protein containing G12D mutation (Homo sapiens (Human), UniProt P01116, G12D); assay: SOS-catalyzed nucleotide exchange assay (GNE), TR-FRET; assay type: biochemical; settings: biotinylated KRAS G12D, SOS and GTP, 60-minute incubation
Sequence (P01116 other isoform, or with tags, fused parts or gaps G12D (already in the parent)): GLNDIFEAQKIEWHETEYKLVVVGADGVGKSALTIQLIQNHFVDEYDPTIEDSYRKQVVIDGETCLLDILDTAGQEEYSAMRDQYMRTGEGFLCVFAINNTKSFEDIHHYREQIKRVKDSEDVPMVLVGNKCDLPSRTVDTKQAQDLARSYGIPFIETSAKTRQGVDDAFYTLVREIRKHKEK
Counter-ions that a name gives are not always drawn.
Respond with a number, then the unit of measure.

Worked examples, 2 compounds total:
{"columns": ["Compound", "IC50"],
 "data": [
  ["C#Cc1ccc(F)c2cccc(-c3c(F)cc4c(N5C[C@H]6CC[C@@](C)(C5)N6)nc(OC[C@@]56CCCN5C[C@H](F)C6)nc4c3F)c12", "45.7 nM"],
  ["Oc1cc(-c2c(F)cc3c(N4CC5NC(C4)C(O)C5O)nc(OCC4(CN5CCOCC5)CC4)nc3c2F)c2ccccc2c1 (stereo not drawn)", "660 nM"]
]}

The record that follows has no IC50 shown yet.
Query block: Requested read-out: IC50. Entry: C[C@]12CC[C@H](CN(c3nc(OC[C@H]4CCN(C5CCCCC5O)C4)nc4c(F)c(-c5cc(O)cc6ccccc56)c(Cl)cc34)C1)N2 (stereo partly drawn) [Example 120, TFA]
Result block: 1440 nM
